Listing of entries alongside the reported PBM binding z-score.
- Tested on: PXR:RXRa (NR concentration 270 nM, RXRa partner concentration 90 nM)
- Method summary: PBM binding z-score (relative to random genomic background probes); higher = stronger binding; sequences stand for … in GC…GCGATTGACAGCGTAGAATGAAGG

Monomer sequence: GGAACGAGGGCAAAGTTGATACCATCTGTCGACG
PBM binding z-score: 1.61
//
Monomer sequence: TATACAGGGTCAAAGGCCACAGTACGAATGTCGA
PBM binding z-score: 4.85
//
Monomer sequence: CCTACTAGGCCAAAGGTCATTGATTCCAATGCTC
PBM binding z-score: 5.56
//
Monomer sequence: TAGGCTAGGTCATTCAGGGGCCAGTATAGAAAGC
PBM binding z-score: 2.64
//
Monomer sequence: GCTTGTGGATCAAGGTTAAGAAAGACTAAGCTAA
PBM binding z-score: 0.429
//
Monomer sequence: GATACAGGGTCTGCTAGAGGCCAGAGTATGGAAA
PBM binding z-score: -0.54

Attribution: the supplement of paper PMC6555819
